- Test system: PRMT1 (protein arginine N-methyltransferase 1)
- assayText: PRMT1 binders on small-molecule microarrays, primary screen, biochemical, small-molecule microarray, 635 nm fluorescence (AID 1088);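 also: binding of Prmt1 protein to compounds spotted on small-molecule microarray slides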
- reportedConditions: small-molecule microarray binding, higher = more signal
measuredProperty: composite z-score

>>> recordedmeasurement("C=CCN1C(=O)[C@@]2(O[C@@H](CCn3cc([C@H](O)c4ccccc4)nn3)[C@H]([Si](C)(C)c3ccc(OC)cc3)[C@H]2C)c2ccccc21")
1.55
>>> recordedmeasurement("CCCCN1CC=CC23O[C@@H]4C=CCOC(=O)[C@@H]4[C@H]2C(=O)N(CCCO)[C@@H]3C1=O (stereo partly drawn)")
0.412
>>> recordedmeasurement("NC(=O)NCC#Cc1ccc2c(c1)[C@]1(C(=O)N2)[C@H](c2ccc(O)cc2)N2[C@H](c3ccccc3)[C@H](c3ccccc3)OC(=O)[C@H]2[C@@H]1C(=O)Nc1nc2ccccc2s1")
1.39

###

- subjectOfTest: Follistatin (Homo sapiens) (UniProt P19883)
- Sequence (P19883 whole entry, looked up): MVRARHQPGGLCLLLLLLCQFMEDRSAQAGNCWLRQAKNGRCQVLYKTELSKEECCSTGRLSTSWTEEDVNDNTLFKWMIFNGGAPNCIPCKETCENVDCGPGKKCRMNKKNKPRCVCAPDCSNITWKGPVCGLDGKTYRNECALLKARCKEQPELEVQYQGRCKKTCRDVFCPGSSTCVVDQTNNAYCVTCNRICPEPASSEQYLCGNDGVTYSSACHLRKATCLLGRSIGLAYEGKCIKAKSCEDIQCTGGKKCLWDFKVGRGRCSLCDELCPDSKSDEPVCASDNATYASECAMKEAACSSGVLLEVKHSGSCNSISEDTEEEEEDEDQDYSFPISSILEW
- assayText: follistatin binders on small-molecule microarrays, primary screen, biochemical, small-molecule microarray, 635/667 nm fluorescence (AID 1132)
- reportedConditions: FST binding, 635 nm fluorescence, higher = more signal
Lab note: anything with composite z-score at or over 0.9 counts as TRUE; the rest go in FALSE.

>>> discretelabel("O=C1c2ccccc2[C@](Cc2ccccc2I)(C(=O)NCCN2CCOCC2)[C@H](c2ccc(CO)cc2)N1Cc1ccccc1")
"TRUE"
>>> discretelabel("O=C1OCC=C[C@H]2OC34C=CCN(c5ccc(Cl)cc5)C(=O)[C@H]3N(CCCCCO)C(=O)[C@@H]4[C@@H]12 (stereo partly specified)")
"FALSE"
>>> discretelabel("C=CC1c2cc(O)c(OC)cc2CCN1Cc1sc2ccccc2c1Cl (stereo unspecified)")
"TRUE"
>>> discretelabel("COCCCNC(=O)[C@]1(Cc2ccccc2CN=[N+]=[N-])N=C(c2ccc(OCCCO)cc2)O[C@@H]1c1ccccc1")
"FALSE"
>>> discretelabel("COCCCNC(=O)[C@]1(Cc2ccccc2N=[N+]=[N-])N=C(c2ccc(OCCCO)cc2)O[C@@H]1c1ccccc1N=[N+]=[N-]")
"FALSE"
>>> discretelabel("C=CC[C@@H](OC(=O)Nc1ccc(OC)cc1)c1ccc(OCCO)cc1")
"FALSE"
>>> discretelabel("CCOC(=O)[C@H]1C/C=C/C[C@H](C(=O)OCC)C(=O)O[C@H]2[C@@H](OC)O[C@H](CO)[C@@H](OC(=O)Nc3ccc(OC)cc3)[C@@H]2OC1=O")
"TRUE"
>>> discretelabel("CC(C)(C)OC(=O)CC[C@@]1(C(=O)O)N=C(c2ccc(OCCCO)cc2)O[C@@H]1c1ccccc1CN=[N+]=[N-]")
"FALSE"
>>> discretelabel("COC(=O)[C@@]1(Cc2ccccc2)[C@H]2c3cc(C(=O)N4CCCC4)n(C[C@H](O)CO)c3C[C@H]2CN1C(=O)c1ccccc1")
"FALSE"
>>> discretelabel("Cc1c(NC(=O)/C(C#N)=C/C=C/c2ccc(N(C)C)cc2)c(=O)n(-c2ccccc2)n1C")
"FALSE"
>>> discretelabel("CN1C(=O)C2C(C1=O)C1C=C(c3ccc(CO)cc3)C2C(c2cccs2)N1Cc1cccc(OC(F)(F)F)c1 (stereo unspecified)")
"TRUE"
>>> discretelabel("COc1ccc([Si](C)(C)[C@@H]2[C@@H](CC(=O)N3CCC[C@H]3CO)O[C@]3(C(=O)N(Cc4ccc(N5C(=O)c6cccc7cccc5c67)cc4)c4ccccc43)[C@H]2C)cc1")
"TRUE"
>>> discretelabel("C=C(C(=O)CC[C@H](OC(C)=O)c1cccc(OCCO)c1)C(C)C")
"FALSE"
>>> discretelabel("CO[C@H]1O[C@H](CO)[C@@H](OC(=O)Nc2ccc(Oc3ccccc3)cc2)[C@H](OC(=O)Nc2ccccc2-c2ccccc2)[C@@H]1OC(=O)Nc1ccccc1-c1ccccc1")
"FALSE"
>>> discretelabel("COC(=O)C1(Cc2ccccc2)C=C2C(=C(C(C)C)C(=O)C2C)CN1 (stereo unspecified)")
"FALSE"
>>> discretelabel("CN1C(=O)C2C=CC(C(O)c3c(F)cccc3Cl)N(Nc3ccccc3)C2C1=O (stereo unspecified)")
"TRUE"

Each recorded value in this set is attributed to PubChem BioAssay.
